target: hAM1R (human, UniProt Q16602); assay: cell-based or functional assay
Bridge positions count the residues as written; N and C are the ends. Square brackets hold non-standard residues; d marks the D form. Ends that are not written are not given here. Hyp = O=C(O)[C@@H]1C[C@@H](O)CN1
Measured Attribute: hAM1R EC50 (cAMP)

Query: Reported hAM1R EC50 (cAMP) for GCRTGTCTVQRLAHQIHQFTDKFKDNVAPRSKISPQT[Hyp]-NH2 (disulfide 2-7 (inferred); ends not checked) [SEQ ID NO: 193] : what is it?
Response: > 5 µM
